- Tested on: male diet induced obese C57BL/6 mice
- assay protocol: Skin histology, sebaceous gland atrophy in DIO mice
- Assay type: in vivo, mouse
- measurement setup: oral 30 mg/kg or dose indicated (Cpd1 3 mg/kg), 14 days, dorsal skin
readout type: Scoring (histological adverse effect score, sebaceous gland atrophy)

| smiles text | result |
| --- | --- |
| CC(C)(C)OC(=O)NC1(C(=O)N[C@@H]2CC(=O)c3ccccc3N(Cc3cc(C(F)(F)F)cc(C(F)(F)F)c3)C2=O)CC1 | moderate to marked |
| CC(C)(O)C[C@H]1CC[C@H](c2ccc(N3CCOc4ncnc(N)c4C3=O)cc2)CC1 | moderate to marked |
